- assay-comment: Acute toxicity, single oral administration
- study-conditions: mouse, in vivo, ICR male mice, read-out: LD₅₀ value
measured-metric: LD50 at 336 h

# return recorded LD50 at 336 h for entry C=C1CCC(O)CC1=CC=C1CCCC2(C)C1CCC2C(C)CCC(O)C(C)(C)O (stereo not shown) [24,25-(OH)₂-D₃, 24,25-dihydroxycholecalciferol]
≥ 100 mg/kg
